# Target: Vasopressin V1b receptor (Homo sapiens, UniProt P47901)
# Sequence (P47901 whole entry): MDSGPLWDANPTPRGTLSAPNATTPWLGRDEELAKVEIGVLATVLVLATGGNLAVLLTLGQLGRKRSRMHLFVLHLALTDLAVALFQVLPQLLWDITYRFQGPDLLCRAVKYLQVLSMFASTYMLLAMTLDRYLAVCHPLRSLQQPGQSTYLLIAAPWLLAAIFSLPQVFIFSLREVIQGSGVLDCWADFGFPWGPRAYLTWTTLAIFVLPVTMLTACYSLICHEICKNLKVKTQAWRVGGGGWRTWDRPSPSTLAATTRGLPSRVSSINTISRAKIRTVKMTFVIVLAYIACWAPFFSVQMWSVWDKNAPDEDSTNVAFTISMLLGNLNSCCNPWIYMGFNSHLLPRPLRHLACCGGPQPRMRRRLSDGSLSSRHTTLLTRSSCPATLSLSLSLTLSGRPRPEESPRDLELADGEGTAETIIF
Measured metric: Ki

{"columns": ["Structure notation", "Experimental value"],
 "data": [
  ["Cl.O=C(Cc1ccc(OC2CCNCC2)cc1OCCF)N1CCC(N2C(=O)CCc3ccccc32)CC1", "> 10 µM"]
]}

In the following, a different compound is considered.
Challenge: Report value only: Ki, Vasopressin V1b receptor (Homo sapiens, UniProt P47901), `CS(=O)(=O)N1CCC(Oc2ccc(CC(=O)N3CCC(N4C(=O)CCc5ccccc54)CC3)c(OCCF)c2)CC1`
Response given: > 10 µM

====

# Target: UniProt:P28222
# Sequence (P28222 whole entry): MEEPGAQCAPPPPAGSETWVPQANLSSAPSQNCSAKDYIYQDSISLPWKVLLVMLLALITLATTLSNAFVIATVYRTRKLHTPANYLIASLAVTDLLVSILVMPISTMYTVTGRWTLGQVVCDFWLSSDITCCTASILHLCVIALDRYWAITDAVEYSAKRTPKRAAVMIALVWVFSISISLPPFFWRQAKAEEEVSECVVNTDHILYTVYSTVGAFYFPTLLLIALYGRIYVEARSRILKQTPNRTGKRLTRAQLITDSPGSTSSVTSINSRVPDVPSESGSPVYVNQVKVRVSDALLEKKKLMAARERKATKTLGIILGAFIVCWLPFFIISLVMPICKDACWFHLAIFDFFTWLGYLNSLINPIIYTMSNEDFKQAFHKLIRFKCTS
# Assay comment: Binding affinity to human 5HT1B receptor by competitive binding assay
Measured metric: pKi
Keep in mind that pKi stands for -log10 of concentration in molar terms.

Challenge: Give the measured pKi for `Cl.O=C(Cc1ccc(OC2CCNCC2)cc1OCCF)N1CCC(N2C(=O)CCc3ccccc32)CC1`
Response given: 6.15

====

# Target: 5-hydroxytryptamine receptor 6 (Homo sapiens)
# Sequence (P50406 whole entry): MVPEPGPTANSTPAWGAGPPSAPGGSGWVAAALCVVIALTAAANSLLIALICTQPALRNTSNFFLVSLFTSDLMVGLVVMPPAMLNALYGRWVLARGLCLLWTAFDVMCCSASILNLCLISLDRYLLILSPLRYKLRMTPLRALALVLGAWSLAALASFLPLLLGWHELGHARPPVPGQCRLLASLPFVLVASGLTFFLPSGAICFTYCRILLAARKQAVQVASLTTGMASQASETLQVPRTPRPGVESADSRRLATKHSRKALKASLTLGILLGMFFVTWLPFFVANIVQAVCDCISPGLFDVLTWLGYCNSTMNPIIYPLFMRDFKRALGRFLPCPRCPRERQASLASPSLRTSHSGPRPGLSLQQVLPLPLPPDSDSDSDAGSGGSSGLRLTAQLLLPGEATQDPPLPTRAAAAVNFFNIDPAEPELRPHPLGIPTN
Measured metric: Ki
Put down the number, then write its unit next to it.

Challenge: Param request: Ki | system 5-hydroxytryptamine receptor 6 (Homo sapiens) | item `Cl.O=C(Cc1ccc(OC2CCNCC2)cc1OCCF)N1CCC(N2C(=O)CCc3ccccc32)CC1`
Response given: 187 nM

====

# Target: 5-hydroxytryptamine receptor 2B (Homo sapiens)
# Sequence (P41595 whole entry): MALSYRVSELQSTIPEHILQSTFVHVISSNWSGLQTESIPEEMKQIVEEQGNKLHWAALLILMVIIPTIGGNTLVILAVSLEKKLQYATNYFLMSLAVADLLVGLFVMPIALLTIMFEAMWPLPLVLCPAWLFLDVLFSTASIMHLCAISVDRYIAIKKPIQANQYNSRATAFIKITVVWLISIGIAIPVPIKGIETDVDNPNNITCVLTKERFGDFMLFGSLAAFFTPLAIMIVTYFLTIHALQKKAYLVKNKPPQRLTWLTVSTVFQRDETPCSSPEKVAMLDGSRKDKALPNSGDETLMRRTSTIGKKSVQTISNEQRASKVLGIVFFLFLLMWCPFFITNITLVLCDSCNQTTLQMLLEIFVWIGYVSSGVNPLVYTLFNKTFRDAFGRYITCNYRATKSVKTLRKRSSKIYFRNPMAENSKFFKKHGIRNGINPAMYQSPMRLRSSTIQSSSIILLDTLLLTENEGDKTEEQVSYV
Measured metric: pKi
Scale explanation: pKi corresponds to minus log10 of a concentration expressed in moles per litre.

Challenge: Given `Cl.O=C(Cc1ccc(OC2CCNCC2)cc1OCCF)N1CCC(N2C(=O)CCc3ccccc32)CC1` , report its pKi on 5-hydroxytryptamine receptor 2B (Homo sapiens).
Response given: 6.30

====

# Target: Alpha-1A adrenergic receptor (Homo sapiens)
# Sequence (P35348 whole entry): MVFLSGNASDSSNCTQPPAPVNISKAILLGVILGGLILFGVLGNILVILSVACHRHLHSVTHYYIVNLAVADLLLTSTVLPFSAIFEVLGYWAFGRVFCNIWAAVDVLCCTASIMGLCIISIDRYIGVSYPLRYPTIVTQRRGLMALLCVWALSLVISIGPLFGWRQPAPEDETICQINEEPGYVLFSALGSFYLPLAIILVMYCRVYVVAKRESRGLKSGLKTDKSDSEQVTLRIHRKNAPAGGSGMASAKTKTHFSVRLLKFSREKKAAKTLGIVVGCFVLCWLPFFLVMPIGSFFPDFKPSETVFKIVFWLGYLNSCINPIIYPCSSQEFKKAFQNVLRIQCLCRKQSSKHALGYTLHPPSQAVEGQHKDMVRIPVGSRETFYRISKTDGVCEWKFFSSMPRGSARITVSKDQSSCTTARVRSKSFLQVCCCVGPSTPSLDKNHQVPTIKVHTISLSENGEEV
Measured metric: pKi
Lab note — pKi values are minus log10 of concentrations in M.

Challenge: Kindly indicate its recorded pKi. Item: `Cl.O=C(Cc1ccc(OC2CCNCC2)cc1OCCF)N1CCC(N2C(=O)CCc3ccccc32)CC1`
Response given: 7.10

====

# Target: UniProtKB P35462
# Sequence (P35462 whole entry): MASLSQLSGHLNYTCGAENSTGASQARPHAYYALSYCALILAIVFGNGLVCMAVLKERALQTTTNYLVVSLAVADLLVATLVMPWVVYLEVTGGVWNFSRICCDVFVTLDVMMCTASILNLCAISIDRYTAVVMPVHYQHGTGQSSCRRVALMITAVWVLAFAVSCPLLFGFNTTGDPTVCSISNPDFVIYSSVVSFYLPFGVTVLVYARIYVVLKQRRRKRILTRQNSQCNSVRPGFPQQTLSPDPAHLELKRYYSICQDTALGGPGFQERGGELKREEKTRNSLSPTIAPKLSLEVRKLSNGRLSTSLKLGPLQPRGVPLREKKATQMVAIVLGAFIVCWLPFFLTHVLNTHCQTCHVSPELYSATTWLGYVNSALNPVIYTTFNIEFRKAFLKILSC
Measured metric: Ki (µM)
All answers are understood in µM, so give the number only.

Challenge: System UniProtKB P35462. Read-out Ki. Item `Cl.O=C(Cc1ccc(OC2CCNCC2)cc1OCCF)N1CCC(N2C(=O)CCc3ccccc32)CC1` . Report value.
Response given: 6.79

====

# Target: Oxytocin receptor (Homo sapiens)
# Sequence (P30559 whole entry): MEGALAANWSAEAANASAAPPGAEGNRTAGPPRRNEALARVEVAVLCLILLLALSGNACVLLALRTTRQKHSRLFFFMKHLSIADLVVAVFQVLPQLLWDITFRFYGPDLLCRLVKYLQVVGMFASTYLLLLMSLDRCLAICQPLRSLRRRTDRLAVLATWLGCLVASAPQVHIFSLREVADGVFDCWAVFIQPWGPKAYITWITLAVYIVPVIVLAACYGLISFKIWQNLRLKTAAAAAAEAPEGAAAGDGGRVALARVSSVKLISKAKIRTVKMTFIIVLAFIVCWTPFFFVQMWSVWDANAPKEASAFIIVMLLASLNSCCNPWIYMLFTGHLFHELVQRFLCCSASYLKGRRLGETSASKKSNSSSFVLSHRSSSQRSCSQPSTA
Measured metric: pKi
As a rule, pKi stands for the negative log10 of the concentration, concentration in M.

Challenge: Return value of pKi for input `Cl.O=C(Cc1ccc(OC2CCNCC2)cc1OCCF)N1CCC(N2C(=O)CCc3ccccc32)CC1` , no commentary.
Response given: 7.82

====

# Assay comment: Lipophilicity, log P of the compound at pH 7.4
# Format: physicochemical
# Cond: buffer
Measured metric: logD
# output: bare number, no unit

Challenge: State its logD: `O=C(Cc1ccc(OC2CCNCC2)cc1OCC[18F])N1CCC(N2C(=O)CCc3ccccc32)CC1`
Response given: 1.57
